- Protocol: Compound was tested for its inhibitory activity against venom NAD glycohydrolase
- Design: species or system Bungarus fasciatus
pIC50: −log10 of the molar value.

# Chemical Structure, pIC50
rows = [
    ("Nc1ncnc2c1ncn2[C@@H]1O[C@H](COP(=O)(O)OP(=O)(O)OC[C@H]2NC[C@H](O)[C@@H]2O)[C@@H](O)[C@H]1O", 3.59),
]
